Reported values of IC50 for individual entries
target: human TDO (TDO-expressing HEK293 cells) (Homo sapiens, UniProt P48775); construct: expressed in transfected cells; assay: Cell based kynurenine assay, TDO-expressing HEK293 cell clones; settings: TDO-expressing HEK293 cells, 24 hours incubation; geometric mean; read-out: HEK293 TDO Kynurenine GMean IC50 (μM) (Cellular Assay)
Sequence (P48775 whole entry): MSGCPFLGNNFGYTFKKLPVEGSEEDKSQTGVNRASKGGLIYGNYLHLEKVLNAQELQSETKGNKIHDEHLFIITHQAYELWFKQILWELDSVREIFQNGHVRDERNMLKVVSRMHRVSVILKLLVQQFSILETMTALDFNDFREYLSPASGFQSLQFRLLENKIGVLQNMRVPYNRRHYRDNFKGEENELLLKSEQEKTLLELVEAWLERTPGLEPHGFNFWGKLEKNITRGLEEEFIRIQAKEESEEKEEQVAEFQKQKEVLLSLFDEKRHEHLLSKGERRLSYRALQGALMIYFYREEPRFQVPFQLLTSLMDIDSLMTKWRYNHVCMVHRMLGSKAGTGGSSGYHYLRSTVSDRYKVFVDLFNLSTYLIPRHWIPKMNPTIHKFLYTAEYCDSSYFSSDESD

Examples with their reported IC50 follow.
COC(=O)N1CCC(C(F)(F)C(O)c2cc(Cl)cc3cn[nH]c23)CC1 (stereo not drawn) [Compound P-0141] : 0.0001 to 10 µM
OC(c1cc(Cl)cc2cn[nH]c12)C12CCC(CC1)C2 (stereo not drawn) [Compound P-0229] : 0.0001 to 10 µM
OCC1CCC(C(O)c2cc(Cl)cc3cn[nH]c23)CC1 (stereo not drawn) [Compound P-0197] : 0.0001 to 10 µM
OC1(c2cc(Cl)cc3cn[nH]c23)C2CC3CC(C2)CC1C3 (stereo not drawn) [Compound P-0380] : 0.0001 to 10 µM
OC(CCc1ccccc1)c1cccc2cncn12 (stereo not drawn) [Compound P-0074] : > 10 µM
CC(C)(N)CC(O)c1cc(Cl)cc2cn[nH]c12 (stereo not drawn) [Compound P-0233] : > 10 µM
COC(=O)N1CCC(C(C)(C)C(O)c2cc(Cl)cc3cn[nH]c23)CC1 (stereo not drawn) [Compound P-0321] : 0.0001 to 10 µM
OC(c1cc(Cl)cc2[nH]ncc12)C1CCCCC1 (stereo not drawn) [Compound P-0173] : 0.0001 to 10 µM

// moving on: another record for IC50
In one line, give reported IC50 of the entry CS(=O)(=O)N1CCC(C(F)(F)C(O)c2c(F)c(Cl)cc3cn[nH]c23)CC1 (stereo not drawn) [Compound P-0288] .
0.0001 to 10 µM

###

target: Human Tryptophan 2,3-dioxygenase (TDO) (Homo sapiens, UniProt P48775); construct: His tag (N); made in house; host or cells: E. coli; assay: Human TDO enzymatic assay (kynurenine level); format: biochemical; details: 1 nM TDO, 350 μM L-Trp; geometric mean; read-out: TDO GMean: IC50 (μM) (Biochemical Assay)
Sequence (P48775 whole entry): as above
Reported values of IC50 for individual entries

COCCNC(=O)N1CCC(C(C)(C)[C@@H](O)c2cc(Cl)cc3cn[nH]c23)CC1 [Compound P-0425] : 0.0001 to 10 µM
CC(C)(C(O)c1cc(Cl)cc2cn[nH]c12)[C@@H]1C[C@H]2CC[C@@H](C1)N2S(C)(=O)=O (stereo partly shown) [Compound P-0272] : 0.0001 to 10 µM
OC(c1c(F)c(Cl)cc2cn[nH]c12)C12CCC(CC1)CC2 (racemic) [Compound P-0294] : 0.0001 to 10 µM
CC(C)(C1CCN(C(=O)Nc2ccc(C#N)cc2)CC1)C(O)c1cc(Cl)cc2cn[nH]c12 (stereo not shown) [Compound P-0168] : 0.0001 to 10 µM
CC(C)(C)OC(=O)N1CCC(C(C)(C)C(O)c2c(F)c(Cl)cc3cn[nH]c23)CC1 (stereo not shown) [Compound P-0370] : 0.0001 to 10 µM
CC(C)(C1CCOCC1)C(O)c1c(Cl)c(Cl)cc2cn[nH]c12 (stereo not shown) [Compound P-0220] : 0.0001 to 10 µM

// moving on: another record for IC50
In one line, give reported IC50 of the entry CNC(=O)CNC(=O)N1CCC(C(C)(C)[C@H](O)c2cc(Cl)cc3cn[nH]c23)CC1 [Compound P-0583] .
0.0001 to 10 µM

###

target: human TDO (TDO-expressing HEK293 cells) (Homo sapiens); construct: expressed in transfected cells; assay: Cell based kynurenine assay, TDO-expressing HEK293 cell clones; conditions: TDO-expressing HEK293 cells, 24 hours, geometric mean; read-out: HEK293 TDO Kynurenine GMean IC50 (μM) (Cellular Assay)
readout type: IC50

Tell me its IC50 on human TDO (TDO-expressing HEK293 cells) (Homo sapiens): CS(=O)(=O)NC12CCC(C(O)c3cc(Cl)cc4cn[nH]c34)(CC1)CC2 (stereo not drawn) [Compound P-0415]
> 10 µM

###

molecular target: human IDO (IDO1-expressing HEK293 cells) (Homo sapiens); construct: expressed in transfected cells; assay: Cell based kynurenine assay, IDO1-expressing HEK293 cell clones; conditions: IDO1-expressing HEK293 cells, 24 hours, geometric mean; read-out: HEK293 IDO1 Kynurenine GMean IC50 (μM) (Cellular Assay)
Sequence (P14902 whole entry): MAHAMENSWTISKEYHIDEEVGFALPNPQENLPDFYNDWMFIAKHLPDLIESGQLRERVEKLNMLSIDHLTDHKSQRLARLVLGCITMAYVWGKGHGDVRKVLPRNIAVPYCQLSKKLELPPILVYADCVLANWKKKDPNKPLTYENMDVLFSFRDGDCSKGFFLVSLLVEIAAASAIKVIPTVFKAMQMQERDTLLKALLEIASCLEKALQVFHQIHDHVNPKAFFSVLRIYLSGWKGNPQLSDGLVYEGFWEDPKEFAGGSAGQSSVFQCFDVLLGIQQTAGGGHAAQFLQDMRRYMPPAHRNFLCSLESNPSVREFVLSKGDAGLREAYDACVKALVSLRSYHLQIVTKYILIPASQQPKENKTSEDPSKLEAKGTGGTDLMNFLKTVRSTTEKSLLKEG
readout type: IC50

CC(C)(C)OC(=O)N1CCC(C(F)(F)C(O)c2c3c(cc4cn[nH]c24)CC3)CC1 (stereo not shown) : 0.0001 to 10 µM
CN(C)CC(=O)N1CCC(C(C)(C)C(O)c2cc(Cl)cc3cn[nH]c23)CC1 (stereo not shown) : 0.0001 to 10 µM
COCC(=O)N1CCC(C(C)(C)[C@H](O)c2c(F)c(Cl)cc3cn[nH]c23)CC1 : 0.0001 to 10 µM

// moving on: another record for IC50
In one line, give reported IC50 of the entry CC(C)(C(O)c1cc(Cl)cc2cn[nH]c12)[C@H]1C[C@H]2CC[C@@H](C1)N2C(=O)Nc1ccc(F)cc1 (stereo partly shown) .
0.0001 to 10 µM

###

molecular target: human IDO (IDO1-expressing HEK293 cells) (Homo sapiens); construct: expressed in transfected cells; assay: Cell based kynurenine assay, IDO1-expressing HEK293 cell clones; conditions: IDO1-expressing HEK293 cells, 24 hours incubation; geometric mean; read-out: HEK293 IDO1 Kynurenine GMean IC50 (μM) (Cellular Assay)
Reported values of IC50 for individual entries

Examples with their reported IC50 follow.
NC(=O)N1CCC(C(F)(F)C(O)c2cc(Cl)cc3cn[nH]c23)CC1 (stereo not shown) : 0.0001 to 10 µM
OC(c1cc(Cl)cc2cn[nH]c12)C12CC3CC(CC(C3)C1)C2 (stereo not shown) : 0.0001 to 10 µM

In one line, give reported IC50 of the entry CC(C)(C1CCN(C(=O)c2ccccc2C(F)(F)F)CC1)C(O)c1cc(Cl)cc2cn[nH]c12 (stereo not shown) .
0.0001 to 10 µM

In one line, give reported IC50 of the entry OC(c1cccnc1)c1cc(Cl)cc2cn[nH]c12 (stereo not shown) .
> 10 µM

In one line, give reported IC50 of the entry NC(=O)N1CCC(C(F)(F)C(O)c2c(F)c(Cl)cc3cn[nH]c23)CC1 (stereo not shown) .
0.0001 to 10 µM

In one line, give reported IC50 of the entry CC(C)(C1CCN(C(=O)Nc2ccccc2C(F)(F)F)CC1)C(O)c1cc(Cl)cc2cn[nH]c12 (stereo not shown) .
0.0001 to 10 µM

In one line, give reported IC50 of the entry Cc1ccc2cn[nH]c2c1C(O)C1(C(F)(F)F)CCCC1 (stereo not shown) .
0.0001 to 10 µM

###

molecular target: Human Tryptophan 2,3-dioxygenase (TDO) (Homo sapiens); construct: His tag (N); made in house; host or cells: E. coli; experiment: Human TDO enzymatic assay (kynurenine level); format: biochemical; conditions: 1 nM TDO, 350 μM L-Trp; geometric mean; read-out: TDO GMean: IC50 (μM) (Biochemical Assay)
readout type: IC50

Examples with their reported IC50 follow.
CC(C)(C1CCN(C(=O)c2ccc(Cl)cn2)CC1)[C@H](O)c1cc(Cl)cc2cn[nH]c12 : 0.0001 to 10 µM
CC1(C(O)c2cc(Cl)cc3cn[nH]c23)CCOCC1 (centres unmarked) : 0.0001 to 10 µM
CC(C)(CN1CCCC1)C(O)c1cc(Cl)cc2cn[nH]c12 (centres unmarked) : 0.0001 to 10 µM

In one line, give reported IC50 of the entry O=C(Nc1cccc(C(F)(F)F)c1)N1CCC(C(F)(F)C(O)c2cc(Cl)cc3cn[nH]c23)CC1 (centres unmarked) .
0.0001 to 10 µM

In one line, give reported IC50 of the entry CC(C)(C1CCN(C(=O)Nc2ccccc2)CC1)C(O)c1cc(Cl)cc2cn[nH]c12 (centres unmarked) .
0.0001 to 10 µM

In one line, give reported IC50 of the entry CC(C)(C)C(O)c1c(Cl)c(Cl)cc2cn[nH]c12 (centres unmarked) .
0.0001 to 10 µM

In one line, give reported IC50 of the entry C[C@@H](NC(=O)N1CCC(C(C)(C)C(O)c2cc(Cl)cc3cn[nH]c23)CC1)c1ccccn1 (some centres unmarked) .
0.0001 to 10 µM

In one line, give reported IC50 of the entry CC1(C(O)c2cc(Cl)cc3[nH]ncc23)CCCCC1 (centres unmarked) .
0.0001 to 10 µM

###

target: human TDO (TDO-expressing HEK293 cells) (Homo sapiens); construct: expressed in transfected cells; test: Cell based kynurenine assay, TDO-expressing HEK293 cell clones; details: TDO-expressing HEK293 cells, 24 hours incubation; geometric mean; read-out: HEK293 TDO Kynurenine GMean IC50 (μM) (Cellular Assay)
readout type: IC50

Examples with their reported IC50 follow.
CC1(C(O)c2cc(Cl)cc3cn[nH]c23)COC1 (stereo not drawn) : 0.0001 to 10 µM
CC(C)NS(=O)(=O)N1CCC(C(F)(F)C(O)c2cc(Cl)cc3cn[nH]c23)CC1 (stereo not drawn) : 0.0001 to 10 µM
OC1(c2cc(Cl)cc3cn[nH]c23)CCC1 : 0.0001 to 10 µM
NS(=O)(=O)N1CCC(C(F)(F)C(O)c2cc(Cl)cc3cn[nH]c23)CC1 (stereo not drawn) : 0.0001 to 10 µM
CC(=O)N1CCC(C(F)(F)C(O)c2c(F)c(Cl)cc3cn[nH]c23)CC1 (stereo not drawn) : 0.0001 to 10 µM

In one line, give reported IC50 of the entry OC1(c2cc(Cl)cc3[nH]ncc23)CC2(CCOCC2)C1 .
> 10 µM

In one line, give reported IC50 of the entry COc1cc(C(O)C2(C)CCCCC2)c2[nH]ncc2c1 (stereo not drawn) .
0.0001 to 10 µM

In one line, give reported IC50 of the entry CC1(C(O)c2c(Cl)ccc3cncn23)CCCCC1 (stereo not drawn) .
> 10 µM

In one line, give reported IC50 of the entry CC(C)OC(=O)N1CCC(C(C)(C)C(O)c2cc(Cl)cc3cn[nH]c23)CC1 (stereo not drawn) .
0.0001 to 10 µM
